Molecular target: KAT6A enzyme (catalytic domain) (Homo sapiens (Human), UniProt Q92794)
Sequence (Q92794 504-778): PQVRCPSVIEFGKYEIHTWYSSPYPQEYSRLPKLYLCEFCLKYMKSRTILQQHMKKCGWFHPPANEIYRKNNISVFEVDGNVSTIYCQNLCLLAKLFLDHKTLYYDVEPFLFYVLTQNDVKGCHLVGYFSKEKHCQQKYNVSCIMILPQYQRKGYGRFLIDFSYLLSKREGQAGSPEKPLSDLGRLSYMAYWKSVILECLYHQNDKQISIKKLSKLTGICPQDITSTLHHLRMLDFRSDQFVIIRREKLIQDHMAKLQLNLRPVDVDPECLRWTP
pIC50: −log10 of the molar value.
Kindly supply the reported pIC50 values for the records listed here.

# annotated cases, reported pIC50 shown
- Smi: "COc1ccc(OC2CCC2)cc1S(=O)(=O)Nc1noc2cc(Cn3cccn3)cc(OC)c12"
  Study system: "KAT6A enzyme (catalytic domain) (Homo sapiens (Human), UniProt Q92794)"
  pIC50: "> 8.30"
- Smi: "C#Cc1cc(OC)c(S(=O)(=O)Nc2noc3cc(Cn4cccn4)cc(OC)c23)c(OC)c1"
  Study system: "KAT6A enzyme (catalytic domain) (Homo sapiens (Human), UniProt Q92794)"
  pIC50: "> 8.30"

Could you now look at the following molecule, please?
The value of pIC50 recorded for COc1ccc(N2CCC2)cc1S(=O)(=O)Nc1noc2cc(Cn3cccn3)cc(OC)c12 when tested on KAT6A enzyme (catalytic domain) (Homo sapiens (Human), UniProt Q92794) reads > 8.00

Ref: patent US20240400545A1
